Assayed system: Replicase polyprotein 1ab (Severe acute respiratory syndrome coronavirus 2)
Method description: Inhibition of SARS-CoV-2 3CLpro preincubated for 60 mins followed by addition of Dabcyl-KNSTLQSGLRKE-Edans fluorogenic peptide as substrate by FRET assay
Measured quantity: IC50 (µM)

>  <Compound>
C#Cc1ccc2c(ccc3[n+]2C(OC)C[Se]3)c1 (stereo unspecified)

>  <Assayed system>
Replicase polyprotein 1ab (Severe acute respiratory syndrome coronavirus 2)

>  <Measured quantity>
IC50

>  <Display unit>
µM

>  <Readout value>
3.66

$$$$
